- assayProcedure: Aqueous solubility of the compound
- Type: physicochemical
reportedMetric: solubility (µg/mL)

Solved entries:
- compound: "O=C1[N-]/C(=C/c2ccc(-c3ccc4c(c3)CNC4=O)s2)C(=O)N1.[Na+]"
  solubility (µg/mL): 136
- compound: "CC1c2cc(-c3ccc(/C=C4/[N-]C(=S)NC4=O)s3)ccc2C(=O)N1C.[Na+] (stereo not given)"
  solubility (µg/mL): 1410
- compound: "O=C1NC(=S)[N-]/C1=C/c1ccc(-c2ccc3c(c2)CCNC3=O)s1.[Na+]"
  solubility (µg/mL): 1570

P. CN1Cc2cc(-c3ccc(/C=C4/[N-]C(=S)NC4=O)s3)ccc2C1=O.[Na+]
Q. O=C1NC(=S)[N-]/C1=C/c1ccc(-c2ccc3c(c2)COC3=O)s1.[Na+]
R. O=C1NC(=S)[N-]/C1=C/c1ccc(-c2ccc3c(c2)CN(CCO)C3=O)s1.[Na+]
S. O=C1NC(=S)[N-]/C1=C/c1ccc(-c2ccc3c(c2)CN(CCCO)C3=O)s1.[Na+]
T. CCOC(=O)N1Cc2cc(-c3ccc(/C=C4/[N-]C(=S)NC4=O)s3)ccc2C1=O.[Na+]
Order the entries by their reported solubility, beginning at the minimum. Output spec: labels arranged per the requested ranking.
Q, P, T, R, S
(Q: 43 µg/mL, P: 151 µg/mL, T: 397 µg/mL, R: 3430 µg/mL, S: 10200 µg/mL)

A. O=C1NC(=S)[N-]/C1=C/c1ccc(-c2ccc3c(c2)C(=O)NCC3)s1.[Na+]
B. O=C1NC(=S)[N-]/C1=C/c1ccc(-c2ccc3c(c2)CNC3=O)s1.[Na+]
Which is greater in solubility, the first item A or the second item B ? Answer = label.
B

Value source: ChEMBL document CHEMBL3102825
